All values here come from ChEMBL document CHEMBL4020827.

# method: Binding affinity to 5'-FAM/3'-TAMRA labeled human telomeric F21T G-quadruplex DNA by fluorescence anisotropy titration method
pKd: −log10 of the molar value.
attribute.measured: pKd

{"chemical.smiles": "CN1CCN(CCCNc2cc3c4c(c(NCCCN5CCN(C)CC5)cc5c4c2C(=O)N(CCCN2CCOCC2)C5=O)C(=O)N(CCCN2CCOCC2)C3=O)CC1", "endpoint.value": 7.70}
